Test system: S. Typhimurium SE01 Wild-Type
procedure-summary: MIC determination by microdilution method
Assay type: cell-based, Salmonella enterica serovar Typhimurium
test-settings: Salmonella enterica; S. Typhimurium SE01 wild-type; read-out: MIC
outcome-measure: MIC

// map COC(=O)C[Se]C(=O)c1cccc(C(=O)[Se]CC(=O)OC)c1 [Se-E2] to recorded MIC (system: S. Typhimurium SE01 Wild-Type) > 100 µM

// map COC(=O)C[Se]C(=O)c1cc(C(=O)[Se]CC(=O)OC)cc(C(=O)[Se]CC(=O)OC)c1 [Se-E3] to recorded MIC (system: S. Typhimurium SE01 Wild-Type) > 100 µM

// map COC(=O)C[Se]C(=O)c1ccc(C(=O)[Se]CC(=O)OC)cc1 [Se-E1] to recorded MIC (system: S. Typhimurium SE01 Wild-Type) > 100 µM
